# Tested System: Adenosine deaminase (Bos taurus)
# Assay Overview: Inhibitory constant against adenosine deaminase in 0.05 M sodium phosphate buffer at pH 7.0, was determined before heating
Observed Property: Ki (µM)

a: Nc1ncnc2c1ncn2[C@@H](C=O)O[C@@H](C=O)CO
b: Nc1ncnc2c1ncn2[C@H](C=O)O[C@@H](C=O)CO
Qu. Compare Ki: is it lower for a or for b ? Answer with the label corresponding to your selection.
Ans. b

###

# Tested System: Adenosine deaminase (Bos taurus)
# Assay Overview: Inhibitor constant against adenosine deaminase in 0.05 M sodium phosphate buffer at pH 7.0 was determined after heating to 100 degrees celsius
Observed Property: Ki (µM)

The cases that follow already have their Ki on record.
Molecule: CC(O)[C@@H](C=O)OC(C=O)n1cnc2c(N)ncnc21 (single isomer, unassigned; 7)
Readout Value: 24

Molecule: CC(O)[C@@H](C=O)OC(C=O)n1cnc2c(N)ncnc21 (single isomer, unassigned; 10)
Readout Value: 20

Molecule: Nc1ncnc2c1ncn2[C@H](C=O)OCC=O
Readout Value: 800

I: C[C@@H](C=O)O[C@@H](C=O)n1cnc2c(N)ncnc21 (stereo in doubt; 13)
II: C[C@@H](C=O)O[C@@H](C=O)n1cnc2c(N)ncnc21 (stereo in doubt; 4)
Qu. Please state the entry with greater Ki among I and II . Answer with the label corresponding to your selection.
Ans. I
(I: 100 µM, II: 30 µM)

###

# Tested System: Adenosine deaminase (Bos taurus, UniProt P56658)
# Sequence (P56658 whole entry): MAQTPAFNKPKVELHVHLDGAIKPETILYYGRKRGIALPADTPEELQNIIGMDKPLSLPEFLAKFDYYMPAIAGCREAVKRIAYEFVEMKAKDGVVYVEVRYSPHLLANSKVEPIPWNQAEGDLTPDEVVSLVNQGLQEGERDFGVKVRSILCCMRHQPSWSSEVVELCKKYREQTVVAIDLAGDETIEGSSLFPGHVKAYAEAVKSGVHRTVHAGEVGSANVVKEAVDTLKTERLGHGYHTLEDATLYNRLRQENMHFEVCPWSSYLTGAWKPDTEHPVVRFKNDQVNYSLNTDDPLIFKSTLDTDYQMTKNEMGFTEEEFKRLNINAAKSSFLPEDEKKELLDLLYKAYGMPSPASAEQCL
# Assay Overview: Inhibitory constant against adenosine deaminase in 0.05 M sodium phosphate buffer at pH 7.0 was determined before heating
pKi: −log10 of the molar value.
Observed Property: pKi

Molecule: C[C@@H](C=O)O[C@@H](C=O)n1cnc2c(N)ncnc21 (stereo in doubt; 13)
Tested System: Adenosine deaminase (Bos taurus, UniProt P56658)
Readout Value: 3.80

Molecule: CC(O)[C@@H](C=O)OC(C=O)n1cnc2c(N)ncnc21 (single isomer, unassigned; 10)
Tested System: Adenosine deaminase (Bos taurus, UniProt P56658)
Readout Value: 3.82

Molecule: C=C(C=O)OC(C=O)n1cnc2c(N)ncnc21 (stereo unspecified)
Tested System: Adenosine deaminase (Bos taurus, UniProt P56658)
Readout Value: 5.40

Molecule: Nc1ncnc2c1ncn2[C@@H](C=O)OCC=O
Tested System: Adenosine deaminase (Bos taurus, UniProt P56658)
Readout Value: 4.34

I: C[C@@H](C=O)O[C@@H](C=O)n1cnc2c(N)ncnc21 (stereo in doubt; 4)
II: Nc1ncnc2c1ncn2[C@H](C=O)OCC=O
Qu. Compare pKi: is it lower for I or for II ? Answer with the label corresponding to your selection.
Ans. II
(II: 3.11, I: 4.55)

Reference source for all entries: ChEMBL document CHEMBL1121634
